test: Peptide solubility in water
Where a SMILES comes first, the peptide text is derived from it. [ ]: non-standard residue; d: D form. Sar = CNCC(=O)O

>  <COMPOUND>
CC[C@H](C)[C@H](N)C(=O)N(C)CC(=O)N[C@@H](CC(C)C)C(=O)N[C@H](C(=O)N[C@@H](CC(C)C)C(=O)N[C@@H](CCC(=O)O)C(=O)N1CCC[C@H]1C(=O)N[C@H](C(=O)N[C@@H](CS)C(=O)N[C@@H](CS)C(=O)N[C@@H](CCC(N)=O)C(=O)N[C@@H](CCC(=O)O)C(=O)N[C@@H](CCCNC(=N)N)C(=O)N[C@@H](C)C(=O)N[C@@H](C)C(=O)O)[C@@H](C)CC)[C@@H](C)CC

>  <solubility in water (in words)>
soluble in water

$$$$
>  <COMPOUND>
CC[C@H](C)[C@H](N)C(=O)N[C@@H](C)C(=O)N[C@@H](CC(C)C)C(=O)N[C@H](C(=O)N(C)CC(=O)N[C@@H](CCC(=O)O)C(=O)N1CCC[C@H]1C(=O)N[C@H](C(=O)N[C@@H](CS)C(=O)N[C@@H](CS)C(=O)N[C@@H](CCC(N)=O)C(=O)N[C@@H](CCC(=O)O)C(=O)N[C@@H](CCCNC(=N)N)C(=O)N[C@@H](C)C(=O)N[C@@H](C)C(=O)O)[C@@H](C)CC)[C@@H](C)CC

>  <solubility in water (in words)>
soluble in water

$$$$
>  <COMPOUND>
CC[C@H](C)[C@H](N)C(=O)N[C@@H](C)C(=O)N[C@@H](CC(C)C)C(=O)N[C@H](C(=O)N[C@@H](CC(C)C)C(=O)N[C@@H](CCC(=O)O)C(=O)N1CCC[C@H]1C(=O)N[C@H](C(=O)N(C)CC(=O)N[C@@H](CCC(N)=O)C(=O)N[C@@H](CCC(=O)O)C(=O)N[C@@H](CCCNC(=N)N)C(=O)N[C@@H](C)C(=O)N[C@@H](C)C(=O)O)[C@@H](C)CC)[C@@H](C)CC [C9,10] (H-IALILEPI[Sar]QERAA-OH)

>  <solubility in water (in words)>
soluble in water

$$$$

---

experiment: Peptide solubility in water

>  <ITEM_SMILES>
CC[C@H](C)[C@H](N)C(=O)N[C@@H](C)C(=O)N(C)CC(=O)N[C@H](C(=O)N[C@@H](CC(C)C)C(=O)N[C@@H](CCC(=O)O)C(=O)N1CCC[C@H]1C(=O)N[C@H](C(=O)N[C@@H](CS)C(=O)N[C@@H](CS)C(=O)N[C@@H](CCC(N)=O)C(=O)N[C@@H](CCC(=O)O)C(=O)N[C@@H](CCCNC(=N)N)C(=O)N[C@@H](C)C(=O)N[C@@H](C)C(=O)O)[C@@H](C)CC)[C@@H](C)CC

>  <solubility in water (in words)>
soluble in water

$$$$
>  <ITEM_SMILES>
CC[C@H](C)[C@H](N)C(=O)N[C@@H](C)C(=O)N[C@@H](CC(C)C)C(=O)N(C)CC(=O)N[C@@H](CC(C)C)C(=O)N[C@@H](CCC(=O)O)C(=O)N1CCC[C@H]1C(=O)N[C@H](C(=O)N[C@@H](CS)C(=O)N[C@@H](CS)C(=O)N[C@@H](CCC(N)=O)C(=O)N[C@@H](CCC(=O)O)C(=O)N[C@@H](CCCNC(=N)N)C(=O)N[C@@H](C)C(=O)N[C@@H](C)C(=O)O)[C@@H](C)CC

>  <solubility in water (in words)>
soluble in water

$$$$
>  <ITEM_SMILES>
CC[C@H](C)[C@H](N)C(=O)N[C@@H](C)C(=O)N[C@@H](CC(C)C)C(=O)N[C@H](C(=O)N[C@@H](CC(C)C)C(=O)N[C@@H](CCC(=O)O)C(=O)N1CCC[C@H]1C(=O)N[C@H](C(=O)N(C)CC(=O)N[C@@H](CS)C(=O)N[C@@H](CCC(N)=O)C(=O)N[C@@H](CCC(=O)O)C(=O)N[C@@H](CCCNC(=N)N)C(=O)N[C@@H](C)C(=O)N[C@@H](C)C(=O)O)[C@@H](C)CC)[C@@H](C)CC

>  <solubility in water (in words)>
soluble in water

$$$$
